# Tested on: MDA-MB-435
# protocol-description: NCI tumour cell line growth inhibition, 48 h
Calls of active or inactive are those of the source. Rule as the data show it: active = GI50 up to about 1.1 µM and inactive = higher.
Pick one and only one: active, inactive

Field: example entries. Status: answers known.
> print(dat)
                                   compound     class
1    S=C(N/N=C(/c1ccccc1)c1ccccn1)N1CCCCCC1    active
2  OCC1OC(n2cnc3c(Cl)nc(Nc4ccccc4)nc32)CC1O (configuration not stated)  inactive
3  O=[N+]([O-])c1c(Br)cc(Br)c2c1Nc1c(ccc(Cl)c1Cl)S2  inactive

For this compound, state the assay outcome: c1ccc(-c2cnc3nc4ccccc4nc3n2)cc1
inactive
